Taken from paper PMC4287394.

# Assay Summary: Plasma pharmacokinetics in patients
# Assay type: in vivo, human
# Study Conditions: human, plasma, oral, 450 mg, AUC 0-24, geometric mean, Day 15, 450 mg QD, 3 patients
Readout: AUC(0-t) (µM·h)

[
  {
    "Smi": "CS(=O)(=O)N1CCN(Cc2cc3nc(-c4cccc5[nH]ncc45)nc(N4CCOCC4)c3s2)CC1",
    "Readout": "AUC(0-t)",
    "Units Text": "µM·h",
    "Recorded Number": 23.5
  }
]

====

# Assay Summary: Plasma pharmacokinetics in patients
# Format: in vivo, human
# Study Conditions: human, plasma, oral, 30 mg, Cmax, geometric mean, Day 15, 30 mg QD, 3 patients

[
  {
    "Smi": "CS(=O)(=O)N1CCN(Cc2cc3nc(-c4cccc5[nH]ncc45)nc(N4CCOCC4)c3s2)CC1",
    "Cmax / µM": 0.179
  }
]

====

# Assay Summary: Plasma pharmacokinetics in patients
# Type: in vivo, human
# Study Conditions: human, plasma, oral, 180 mg, Tmax, median, Day 1, 180 mg QD, 3 patients

[
  {
    "Molecule": "CS(=O)(=O)N1CCN(Cc2cc3nc(-c4cccc5[nH]ncc45)nc(N4CCOCC4)c3s2)CC1 [pictilisib]",
    "Units Text": "h",
    "Tmax": 2
  }
]

====

# Assay Summary: Plasma pharmacokinetics in patients
# Assay type: in vivo, human
# Study Conditions: human, plasma, oral, 100 mg, Cmax, geometric mean, Day 1, 100 mg QD, 5 patients
Readout: Cmax (nM)

[
  {
    "Compound": "CS(=O)(=O)N1CCN(Cc2cc3nc(-c4cccc5[nH]ncc45)nc(N4CCOCC4)c3s2)CC1 [pictilisib]",
    "Recorded Number": 362
  }
]

====

# Assay Summary: Plasma pharmacokinetics in patients
# Type: in vivo, human
# Study Conditions: human, plasma, oral, 340 mg, AUC 0-24, geometric mean, Day 15, 340 mg QD, 6 patients
Readout: AUC(0-t)

[
  {
    "Smi": "CS(=O)(=O)N1CCN(Cc2cc3nc(-c4cccc5[nH]ncc45)nc(N4CCOCC4)c3s2)CC1",
    "Result": "16.5 µM·h"
  }
]

====

# Assay Summary: Plasma pharmacokinetics in patients
# Assay type: in vivo, human
# Study Conditions: human, plasma, oral, 130 mg, Cmax, geometric mean, Day 15, 130 mg QD, 3 patients

[
  {
    "Smi": "CS(=O)(=O)N1CCN(Cc2cc3nc(-c4cccc5[nH]ncc45)nc(N4CCOCC4)c3s2)CC1",
    "Cmax [nM]": 457
  }
]

====

# Assay Summary: Plasma pharmacokinetics in patients
# Assay type: in vivo, human
# Study Conditions: human, plasma, oral, 400 mg, Tmax, median, Day 1, 400 mg QD, 1 patient
Readout: Tmax

[
  {
    "Smi": "CS(=O)(=O)N1CCN(Cc2cc3nc(-c4cccc5[nH]ncc45)nc(N4CCOCC4)c3s2)CC1",
    "Result": "2 h"
  }
]

====

# Assay Summary: Plasma pharmacokinetics in patients
# Format: in vivo, human
# Study Conditions: human, plasma, oral, 245 mg, Cmax, geometric mean, Day 15, 245 mg QD, 3 patients
Readout: Cmax (µM)

[
  {
    "Smi": "CS(=O)(=O)N1CCN(Cc2cc3nc(-c4cccc5[nH]ncc45)nc(N4CCOCC4)c3s2)CC1",
    "Recorded Number": 1.37
  }
]

====

# Assay Summary: Plasma pharmacokinetics in patients
# Format: in vivo, human
# Study Conditions: human, plasma, oral, 180 mg, Tmax, median, Day 15, 180 mg QD, 3 patients
Readout: Tmax (h)

[
  {
    "Smi": "CS(=O)(=O)N1CCN(Cc2cc3nc(-c4cccc5[nH]ncc45)nc(N4CCOCC4)c3s2)CC1",
    "Units Text": "h",
    "Recorded Number": 1
  }
]

====

# Assay Summary: Plasma pharmacokinetics in patients
# Assay type: in vivo, human
# Study Conditions: human, plasma, oral, 340 mg, Cmax, geometric mean, Day 1, 340 mg QD, 7 patients
Readout: Cmax

[
  {
    "Smi": "CS(=O)(=O)N1CCN(Cc2cc3nc(-c4cccc5[nH]ncc45)nc(N4CCOCC4)c3s2)CC1",
    "Result": "1680 nM"
  }
]

====

# Assay Summary: Plasma pharmacokinetics in patients
# Type: in vivo, human
# Study Conditions: human, plasma, oral, 15 mg, Cmax, geometric mean, Day 1, 15 mg QD, 4 patients
Readout: Cmax

[
  {
    "Compound": "CS(=O)(=O)N1CCN(Cc2cc3nc(-c4cccc5[nH]ncc45)nc(N4CCOCC4)c3s2)CC1 [pictilisib]",
    "Readout": "Cmax",
    "Result": "0.112 µM"
  }
]

====

# Assay Summary: Plasma pharmacokinetics in patients
# Assay type: in vivo, human
# Study Conditions: human, plasma, oral, 245 mg, AUC 0-24, geometric mean, Day 15, 245 mg QD, 3 patients
Readout: AUC(0-t) (µM·h)

[
  {
    "Smi": "CS(=O)(=O)N1CCN(Cc2cc3nc(-c4cccc5[nH]ncc45)nc(N4CCOCC4)c3s2)CC1",
    "Readout": "AUC(0-t)",
    "Recorded Number": 11.3
  }
]

====

# Assay Summary: Plasma pharmacokinetics in patients
# Assay type: in vivo, human
# Study Conditions: human, plasma, oral, 450 mg, AUC 0-24, geometric mean, Day 1, 450 mg QD, 3 patients
Readout: AUC(0-t) (µM·h)

[
  {
    "Smi": "CS(=O)(=O)N1CCN(Cc2cc3nc(-c4cccc5[nH]ncc45)nc(N4CCOCC4)c3s2)CC1",
    "Units Text": "µM·h",
    "Recorded Number": 13.9
  }
]

====

# Assay Summary: Plasma pharmacokinetics in patients
# Format: in vivo, human
# Study Conditions: human, plasma, oral, 15 mg, Tmax, median, Day 15, 15 mg QD, 4 patients

[
  {
    "Molecule": "CS(=O)(=O)N1CCN(Cc2cc3nc(-c4cccc5[nH]ncc45)nc(N4CCOCC4)c3s2)CC1 [pictilisib]",
    "Tmax (h)": 1.5
  }
]

====

# Assay Summary: Plasma pharmacokinetics in patients
# Assay type: in vivo, human
# Study Conditions: human, plasma, oral, 130 mg, Tmax, median, Day 1, 130 mg QD, 3 patients
Readout: Tmax

[
  {
    "Smi": "CS(=O)(=O)N1CCN(Cc2cc3nc(-c4cccc5[nH]ncc45)nc(N4CCOCC4)c3s2)CC1",
    "Result": "2 h"
  }
]

====

# Assay Summary: Plasma pharmacokinetics in patients
# Assay type: in vivo, human
# Study Conditions: human, plasma, oral, 245 mg, Tmax, median, Day 15, 245 mg QD, 3 patients
Readout: Tmax (h)

[
  {
    "Molecule": "CS(=O)(=O)N1CCN(Cc2cc3nc(-c4cccc5[nH]ncc45)nc(N4CCOCC4)c3s2)CC1 [pictilisib]",
    "Recorded Number": 1
  }
]

====

# Assay Summary: Plasma pharmacokinetics in patients
# Format: in vivo, human
# Study Conditions: human, plasma, oral, 30 mg
Readout: half-life (h)

[
  {
    "Smi": "CS(=O)(=O)N1CCN(Cc2cc3nc(-c4cccc5[nH]ncc45)nc(N4CCOCC4)c3s2)CC1",
    "Readout": "half-life",
    "Recorded Number": 24.1
  }
]

====

# Assay Summary: Plasma pharmacokinetics in patients
# Format: in vivo, human
# Study Conditions: human, plasma, oral, 180 mg

[
  {
    "Molecule": "CS(=O)(=O)N1CCN(Cc2cc3nc(-c4cccc5[nH]ncc45)nc(N4CCOCC4)c3s2)CC1 [pictilisib]",
    "half-life [h]": 17.1
  }
]

====

# Assay Summary: Plasma pharmacokinetics in patients
# Type: in vivo, human
# Study Conditions: human, plasma, oral, 330 mg, AUC 0-24, geometric mean, Day 1, 330 mg QD, 17 patients

[
  {
    "Smi": "CS(=O)(=O)N1CCN(Cc2cc3nc(-c4cccc5[nH]ncc45)nc(N4CCOCC4)c3s2)CC1",
    "Units Text": "µM·h",
    "AUC(0-t)": 14.4
  }
]

====

# Assay Summary: Plasma pharmacokinetics in patients
# Type: in vivo, human
# Study Conditions: human, plasma, oral, 30 mg, Tmax, median, Day 1, 30 mg QD, 3 patients

[
  {
    "Smi": "CS(=O)(=O)N1CCN(Cc2cc3nc(-c4cccc5[nH]ncc45)nc(N4CCOCC4)c3s2)CC1",
    "Tmax [h]": 2
  }
]

====

# Assay Summary: Plasma pharmacokinetics in patients
# Assay type: in vivo, human
# Study Conditions: human, plasma, oral, 60 mg, Cmax, geometric mean, Day 1, 60 mg QD, 4 patients
Readout: Cmax (nM)

[
  {
    "Smi": "CS(=O)(=O)N1CCN(Cc2cc3nc(-c4cccc5[nH]ncc45)nc(N4CCOCC4)c3s2)CC1",
    "Recorded Number": 242
  }
]
